Origin of the recorded values: patent US20130053381A1

# Test system: OF1 mice
# ASSAY_REMARKS: Maximal electroshock test (MES Test)
# Type: in vivo
# EXPERIMENTAL_CONDITIONS: Mus musculus, po; 50 mg/kg, p.o., pre-treatment time −1 h; read-out: %-Protection
RESULT_TYPE: responders at 50 mg/kg (%)

1) CC(C)n1nccc1-c1cc2c(=O)n(NS(C)(=O)=O)c(=O)[nH]c2cc1C(F)(F)F; 80
2) COCCOC(=O)N(n1c(=O)[nH]c2cc(C(F)F)c(-c3ccnn3C(C)C)cc2c1=O)S(C)(=O)=O; 40
3) CC(C)C(=O)N(n1c(=O)[nH]c2cc(C(C)C)c(-c3ccnn3C)cc2c1=O)S(C)(=O)=O; 60
4) CCn1nccc1-c1cc2c(=O)n(NS(C)(=O)=O)c(=O)[nH]c2cc1C(F)F; 0
5) CCn1nccc1-c1cc2c(=O)n(NS(C)(=O)=O)c(=O)[nH]c2cc1C(F)(F)F; 0
6) CCCC(=O)N(n1c(=O)c2cc(-c3ccnn3C)c(C(C)C)cc2n(C(=O)CCC)c1=O)S(C)(=O)=O; 80
7) CC(C)c1cc2[nH]c(=O)n(N(C(=O)COCc3ccccc3)S(C)(=O)=O)c(=O)c2cc1-c1ccnn1C; 100
8) COCCOC(=O)N(n1c(=O)[nH]c2cc(C(F)(F)F)c(-c3ccnn3C)cc2c1=O)S(C)(=O)=O; 80
9) CCc1cc2c(cc1-c1ccnn1C)c(=O)n(N(C(C)=O)S(C)(=O)=O)c(=O)n2C(C)=O; 100
10) CCCCC(=O)N(n1c(=O)[nH]c2cc(C(F)F)c(-c3ccnn3C(C)C)cc2c1=O)S(C)(=O)=O; 40
11) CCOC(=O)N(n1c(=O)[nH]c2cc(C(F)(F)F)c(C(CC)OC)cc2c1=O)S(C)(=O)=O (stereo not drawn); 80
12) CCOC(=O)N(n1c(=O)c2cc(-c3ccnn3C)c(C(C)C)cc2n(C(=O)OCC)c1=O)S(C)(=O)=O; 80
13) CSCCC(=O)N(n1c(=O)[nH]c2cc(C(F)(F)F)c(-c3ccnn3C(C)C)cc2c1=O)S(C)(=O)=O; 40
14) CCCCCOC(=O)N(n1c(=O)[nH]c2cc(CC)c(-c3ccnn3C)cc2c1=O)S(C)(=O)=O; 20
15) COC(=O)N(n1c(=O)[nH]c2cc(C(F)(F)F)c(-n3cccc3)cc2c1=O)S(C)(=O)=O; 20

---

# Tested on: OF1 mice
# ASSAY_REMARKS: Maximal electroshock test (MES Test)
# Type: in vivo
# EXPERIMENTAL_CONDITIONS: Mus musculus, po; 50 mg/kg, p.o., pre-treatment time −1 h; read-out: %-Protection
As shown below, each of these molecules has a reported responders at 50 mg/kg value.
RESULT_TYPE: responders at 50 mg/kg (%)

1. CC(C)COC(=O)N(n1c(=O)[nH]c2cc(C(F)(F)F)c(-c3ccnn3C)cc2c1=O)S(C)(=O)=O; 60
2. CCC(=O)N(n1c(=O)[nH]c2cc(C(F)(F)F)c(-n3cccc3)cc2c1=O)S(C)(=O)=O; 20
3. CCOC(=O)N(n1c(=O)[nH]c2cc(C(F)F)c(-c3ccnn3C(C)C)cc2c1=O)S(C)(=O)=O; 60
4. CC(C)CC(=O)N(n1c(=O)[nH]c2cc(C(F)(F)F)c(-n3ccnc3)cc2c1=O)S(C)(=O)=O; 20
5. CCCCOC(=O)N(n1c(=O)[nH]c2cc(CC)c(-c3ccnn3C)cc2c1=O)S(C)(=O)=O; 40
6. CCCCCC(=O)N(n1c(=O)[nH]c2cc(CC)c(-c3ccnn3CC)cc2c1=O)S(C)(=O)=O; 20
7. CCCC(=O)N(n1c(=O)[nH]c2cc(C(F)(F)F)c(C(CC)OC)cc2c1=O)S(C)(=O)=O (centres unmarked); 100
8. CCCCCC(=O)N(n1c(=O)[nH]c2cc(C(F)(F)F)c(C(CC)OC)cc2c1=O)S(C)(=O)=O (centres unmarked); 80
9. CCCCOC(=O)N(n1c(=O)[nH]c2cc(C(F)(F)F)c(-c3ccnn3C(C)C)cc2c1=O)S(C)(=O)=O; 100
10. CCC(OC)c1cc2c(=O)n(N(C(=O)C(C)C)S(C)(=O)=O)c(=O)[nH]c2cc1C(F)(F)F (centres unmarked); 100
11. CCOC(=O)N(n1c(=O)[nH]c2cc(C(F)(F)F)c(-c3ccnn3C(C)C)cc2c1=O)S(C)(=O)=O; 60
12. CCCCCC(=O)N(n1c(=O)[nH]c2cc(C(F)(F)F)c(C(O)CC)cc2c1=O)S(C)(=O)=O (centres unmarked); 40
13. CCOC(=O)N(n1c(=O)[nH]c2cc(C(C)C)c(-c3ccnn3C)cc2c1=O)S(C)(=O)=O; 100
14. CC(=O)n1c(=O)n(N(C(=O)OCc2ccccc2)S(C)(=O)=O)c(=O)c2cc(-c3ccnn3C)c(C(C)C)cc21; 100
15. CS(=O)(=O)Nn1c(=O)[nH]c2cc(C(F)(F)F)c(-n3ccnc3)cc2c1=O; 0
16. CCc1cc2[nH]c(=O)n(NS(C)(=O)=O)c(=O)c2cc1-c1ccnn1CC; 60
17. CC(=O)OCC(=O)N(n1c(=O)[nH]c2cc(C(C)C)c(-c3ccnn3C)cc2c1=O)S(C)(=O)=O; 100
18. CCc1cc2[nH]c(=O)n(N(C(C)=O)S(C)(=O)=O)c(=O)c2cc1-c1ccnn1C; 100
19. CC(C)COC(=O)N(n1c(=O)[nH]c2cc(C(F)(F)F)c([C@H]3CCCO3)cc2c1=O)S(C)(=O)=O; 20
20. CC(=O)N(n1c(=O)[nH]c2cc(C(F)(F)F)c([C@H]3CCCO3)cc2c1=O)S(C)(=O)=O; 80
21. CCCOC(=O)N(n1c(=O)[nH]c2cc(C(F)(F)F)c(-n3ccnc3C)cc2c1=O)S(C)(=O)=O; 40
22. CC(C)n1nccc1-c1cc2c(=O)n(NS(C)(=O)=O)c(=O)[nH]c2cc1C(F)F; 80
23. CC(C)c1cc2[nH]c(=O)n(N(C(=O)CCCOCc3ccccc3)S(C)(=O)=O)c(=O)c2cc1-c1ccnn1C; 100
24. CCC(O)c1cc2c(=O)n(N(C(=O)OCCOC)S(C)(=O)=O)c(=O)[nH]c2cc1C(F)(F)F (centres unmarked); 20
25. CCCC(=O)N(n1c(=O)[nH]c2cc(C(C)C)c(-c3ccnn3C)cc2c1=O)S(C)(=O)=O; 100
26. CCCCOC(=O)N(n1c(=O)c2cc(-c3ccnn3C)c(C(C)C)cc2n(C(=O)OCCCC)c1=O)S(C)(=O)=O; 80
27. COC(=O)N(n1c(=O)[nH]c2cc(C(F)(F)F)c([C@H]3CCCO3)cc2c1=O)S(C)(=O)=O; 20
28. CCCCCC(=O)N(n1c(=O)[nH]c2cc(C(C)C)c(-c3ccnn3C)cc2c1=O)S(C)(=O)=O; 100
29. CCCCCC(=O)N(n1c(=O)[nH]c2cc(C(F)(F)F)c(-c3ccnn3C)cc2c1=O)S(C)(=O)=O; 80
